Property: pIC50; scope: individual molecules
# targetDesc: met (HGF receptor) in human gastric cancer cells MKN45 (Homo sapiens, UniProt P08581)
# Construct: endogenous in cells; host or cells: MKN45 human gastric cancer cells
# Sequence (P08581 25-1390): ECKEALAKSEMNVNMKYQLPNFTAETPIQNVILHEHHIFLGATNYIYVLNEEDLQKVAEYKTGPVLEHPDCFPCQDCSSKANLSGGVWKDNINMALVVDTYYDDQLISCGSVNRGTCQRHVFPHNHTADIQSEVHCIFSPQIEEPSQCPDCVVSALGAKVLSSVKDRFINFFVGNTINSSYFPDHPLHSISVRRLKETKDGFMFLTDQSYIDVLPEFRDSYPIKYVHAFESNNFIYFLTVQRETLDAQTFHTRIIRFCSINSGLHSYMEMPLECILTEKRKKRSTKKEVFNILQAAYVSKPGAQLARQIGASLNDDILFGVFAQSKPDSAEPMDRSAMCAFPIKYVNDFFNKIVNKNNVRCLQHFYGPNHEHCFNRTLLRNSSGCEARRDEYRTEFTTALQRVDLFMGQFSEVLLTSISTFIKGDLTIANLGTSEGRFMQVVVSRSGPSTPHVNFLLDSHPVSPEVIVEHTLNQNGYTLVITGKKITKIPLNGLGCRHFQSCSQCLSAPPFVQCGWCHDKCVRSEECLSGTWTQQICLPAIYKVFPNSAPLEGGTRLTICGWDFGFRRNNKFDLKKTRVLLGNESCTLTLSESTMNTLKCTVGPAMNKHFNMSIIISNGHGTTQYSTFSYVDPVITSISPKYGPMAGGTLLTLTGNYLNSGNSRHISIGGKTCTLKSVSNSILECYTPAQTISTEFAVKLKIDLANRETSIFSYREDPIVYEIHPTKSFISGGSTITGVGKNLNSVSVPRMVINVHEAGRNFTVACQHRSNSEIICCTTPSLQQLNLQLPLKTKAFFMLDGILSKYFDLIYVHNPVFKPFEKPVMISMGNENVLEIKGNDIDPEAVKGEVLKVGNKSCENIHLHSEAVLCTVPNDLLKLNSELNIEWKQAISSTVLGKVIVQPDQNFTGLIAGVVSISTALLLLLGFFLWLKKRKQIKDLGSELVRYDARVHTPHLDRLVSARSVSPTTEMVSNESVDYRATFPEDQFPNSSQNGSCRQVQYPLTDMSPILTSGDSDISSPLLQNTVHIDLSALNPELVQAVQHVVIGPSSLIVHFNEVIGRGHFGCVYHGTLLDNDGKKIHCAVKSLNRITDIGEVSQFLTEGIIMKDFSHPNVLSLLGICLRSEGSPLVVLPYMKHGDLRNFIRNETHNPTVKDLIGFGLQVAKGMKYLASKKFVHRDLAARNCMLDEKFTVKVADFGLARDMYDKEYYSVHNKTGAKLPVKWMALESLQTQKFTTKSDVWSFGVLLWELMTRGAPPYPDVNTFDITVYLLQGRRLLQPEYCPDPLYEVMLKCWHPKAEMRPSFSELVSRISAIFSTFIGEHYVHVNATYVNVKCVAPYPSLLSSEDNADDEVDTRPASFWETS
# experimentNotes: Inhibitory activity against met-autophosphorylation using ELISA method (2), MKN45 cells, HGF-independent
# Assay type: cell-based
Note on units: pIC50 is unitless, being -log10 of a concentration expressed in mol/L.

Guide cases for pIC50, answers given:
Under met (HGF receptor) in human gastric cancer cells MKN45 (Homo sapiens, UniProt P08581): pIC50 value of COc1cc2c(Oc3ccc(NC(=S)NC(=O)Cc4ccccc4C)cc3F)ccnc2cc1OCC(O)CN1CCOCC1 (stereo not shown) ?
7.68

Lookup: pIC50 / met (HGF receptor) in human gastric cancer cells MKN45 (Homo sapiens, UniProt P08581) / COc1cc2nccc(Oc3ccc(NC(=O)C(C)C(=O)Nc4ccc(F)cc4F)cc3)c2cc1OC (stereo not shown)
6.52

Recall the recorded pIC50 for COc1cc2c(Oc3ccc(NC(=S)NC(=O)Cc4ccccc4Cl)cc3F)ccnc2cc1OCC(O)CN1CCCCC1 (stereo not shown) with met (HGF receptor) in human gastric cancer cells MKN45 (Homo sapiens, UniProt P08581) and state it.
6.73

Lab note: need pIC50 for `COc1cc2c(Oc3ccc(NC(=O)NC(=O)Cc4ccccc4)cc3F)ccnc2cc1OCCCn1ccnc1` on met (HGF receptor) in human gastric cancer cells MKN45 (Homo sapiens, UniProt P08581), anyone have it?
7.67

Notebook entry, met (HGF receptor) in human gastric cancer cells MKN45 (Homo sapiens, UniProt P08581) assay: pIC50 of `COc1cc2nccc(Oc3ccc(NC(=S)NC(=O)CCSC)cc3F)c2cc1OC` = ?
5.93

***
Item `CCCCOCC(=O)NC(=S)Nc1ccc(Oc2ccnc3cc(OC)c(OC)cc23)c(Cl)c1` with met (HGF receptor) in human gastric cancer cells MKN45 (Homo sapiens, UniProt P08581) - pIC50?
6.35

Form field: pIC50 recorded for `COc1cc2nccc(Oc3ccc(NC(=O)NC(=O)Nc4cccc(C)n4)cc3)c2cc1OC` with met (HGF receptor) in human gastric cancer cells MKN45 (Homo sapiens, UniProt P08581) (enter value)
6.34

###

# targetDesc: met (HGF receptor) in human gastric cancer cells MKN45 (Homo sapiens)
# Construct: endogenous in cells
# experimentNotes: Inhibitory activity against met-autophosphorylation using ELISA method (2), MKN45 cells, HGF-independent
pIC50: −log10 of the molar value.
Rule: y for pIC50 not less than 7, n for anything less.

Observe how each entry below is paired with its result.
Determine whether measured pIC50 meets or exceeds 7 for `COc1cc2nccc(Oc3ccc(NC(=S)NC(=O)Cc4ccc(Cl)cc4)cc3)c2cc1OC`
n

Answer whether pIC50 of COc1cc2c(Oc3ccc(NC(=S)NC(=O)Cc4cccc(C)c4)cc3F)ccnc2cc1OCC(O)CN1CCOCC1 (stereo not shown) is greater than or equal to 7.
y

Hi, just wondering whether `COc1cc2c(Oc3ccc(NC(=O)NC(=O)Cc4ccc(F)cc4)cc3F)ccnc2cc1OCCCN1CCCCC1` shows pIC50 of 7 or higher.
n

Continuing:
Say whether COc1cc2c(Oc3ccc(NC(=S)NC(=O)Cc4ccc(F)cc4)cc3F)ccnc2cc1OCC(O)CN1CCCCC1 (stereo not shown) shows pIC50 of 7 or more.
y

Test whether the compound `COc1cc2c(Oc3ccc(NC(=O)NC(=O)Cc4ccccc4)cc3F)ccnc2cc1OCCCCN1CCN(C)CC1` records pIC50 of 7 or higher.
n

Has `COc1cccc(CC(=O)NC(=S)Nc2ccc(Oc3ccnc4cc(OC)c(OC)cc34)cc2F)c1` a recorded pIC50 greater than or equal to 7?
n

Decide: is the reported value of pIC50 for `COc1cc2nccc(Oc3ccc(NC(=O)NC(=O)Cc4ccc(F)cc4)cc3F)c2cc1OC` equal to or greater than 7?
y

###

# targetDesc: met (HGF receptor) in human gastric cancer cells MKN45 (Homo sapiens, UniProt P08581)
# Construct: endogenous in cells; host or cells: MKN45 human gastric cancer cells
# experimentNotes: Inhibitory activity against met-autophosphorylation using ELISA method (2), MKN45 cells, HGF-independent
# Format: cell-based
Listed compounds paired with reported IC50
Express your answer in nM, writing the number without its unit.

Example compounds with recorded IC50:
Given COc1cc2nccc(Oc3ccc(NC(=S)NC(=O)Cc4ccccc4C)cc3)c2cc1OC [Example 79] , state its recorded IC50.
145

I am curious: what IC50 value has been reported for COc1cc2c(Oc3ccc(NC(=S)NC(=O)Cc4ccc(C)cc4)cc3F)ccnc2cc1OCCCN1CCOCC1 [Example 304] ?
65.9

Name the recorded IC50 for COc1cc2nccc(Oc3ccc(NC(=O)NC(=O)Nc4ccccc4CCO)cc3)c2cc1OC [Example 267] .
109

Attention now shifts to the item below.
Quick one: IC50 for COc1cc2nccc(Oc3ccc(NC(=S)NC(=O)c4cccc5ccccc45)cc3)c2cc1OC [Example 56] ?
140

###

# key: entry, value: IC50
# targetDesc: met (HGF receptor) in human gastric cancer cells MKN45 (Homo sapiens)
# Construct: endogenous in cells
# experimentNotes: Inhibitory activity against met-autophosphorylation using ELISA method (2), MKN45 cells, HGF-independent
Give the value in nM but do not write nM after it.

Examples with their reported IC50 follow.
# input compound: COc1cc2nccc(Oc3ccc(NC(=O)NC(=O)Nc4ccc(F)cc4Cl)cc3)c2cc1OC [Example 250] ; wanted: its IC50
447

Request the reported IC50 associated with COc1cc2c(Oc3ccc(NC(=O)NC(=O)Cc4ccc(F)cc4)c(F)c3)ccnc2cc1OCCCCN1CCOCC1 [Example 44]
291

What does the record list as IC50 for COc1cc2nccc(Oc3ccc(NC(=O)NC(=O)CSc4nccn4C)cc3Cl)c2cc1OC [Example 130] ?
2160

Look up IC50 for this compound: COc1cc2nccc(Oc3ccc(NC(=O)NC(=O)CSC4CCCCC4)cc3)c2cc1OC [Example 113]
653

What value of measured IC50 is listed for COc1cc2nccc(Oc3ccc(NC(=S)NC(=O)Cc4cccc(F)c4F)c(F)c3)c2cc1OC [Example 194] ?
319

***
// lookup IC50 for COc1cc2nccc(Oc3ccc(NC(=O)NC(=O)Cc4ccc(F)cc4F)c(F)c3)c2cc1OC [Example 33]
61.8

Entry COc1cc2c(Oc3ccc(NC(=O)NC(=O)Cc4ccccc4)cc3F)ccnc2cc1O [Example 106] : reported IC50 = ?
42.7

Item COc1cc2nccc(Oc3ccc(NC(=S)NC(=O)Cc4ccc(F)cc4)cc3Cl)c2cc1OC [Example 73] has what recorded IC50?
28.1

What value of IC50 has been recorded for this entry: COc1cc(Oc2ccnc3cc(OC)c(OC)cc23)ccc1NC(=S)NC(=O)Cc1ccccc1 [Example 69]
4.4

###

Listing of recorded pIC50 by entry.
# targetDesc: met (HGF receptor) in human gastric cancer cells MKN45 (Homo sapiens)
# Construct: endogenous in cells
# experimentNotes: Inhibitory activity against met-autophosphorylation using ELISA method (2), MKN45 cells, HGF-independent
Entry type: numeric. Quantity: pIC50, the -log10 of concentration in molar units.

Which measured pIC50 value corresponds to COc1cc2c(Oc3ccc(NC(=S)NC(=O)Cc4cccc(F)c4)cc3F)ccnc2cc1OCC(O)CN1CCCC1 (stereo not drawn) ?
7.73

If you can, please state the reported pIC50 value of `COc1cc2nccc(Oc3ccc(NC(=O)NC(=O)Nc4ncccc4C)cc3)c2cc1OC` .
6.49

Others:
# pIC50 lookup, item COc1cc2nccc(Oc3ccc(NC(=O)NC(=O)CC4C5CCC4CC5)cc3F)c2cc1OC (stereo not drawn)
6.50

###

# targetDesc: met (HGF receptor) in human gastric cancer cells MKN45 (Homo sapiens)
# Construct: endogenous in cells
# experimentNotes: Inhibitory activity against met-autophosphorylation using ELISA method (2), MKN45 cells, HGF-independent
pIC50: −log10 of the molar value.
Class Met: pIC50 at least 7. Class Not met: pIC50 below 7.

Kindly determine if pIC50 recorded for `COc1cc2c(Oc3ccc(NC(=O)NC(=O)Cc4ccc(F)cc4)c(F)c3)ccnc2cc1OCCCN1CCCCC1` is above or exactly 7.
Not met

Determine whether this compound has pIC50 no lower than 7: `COc1cc2nccc(Oc3ccc(NC(=O)NC(=O)Nc4ccccc4C(F)(F)F)cc3)c2cc1OC`
Not met

Is pIC50 at least 7? Consider `COc1cc2nccc(Oc3ccc(NC(=O)NC(=O)Nc4ccccc4F)cc3)c2cc1OC`
Not met

Hi, just wondering whether `COc1cc2nccc(Oc3ccc(NC(=S)NC(=O)CC4CCCCC4)c(F)c3)c2cc1OC` shows pIC50 of 7 or higher.
Not met

Next up:
Identify whether the reported pIC50 of the following compound is 7 or greater: `COc1cc2nccc(Oc3ccc(NC(=O)NC(=O)Cc4ccccc4C(F)(F)F)cc3F)c2cc1OC`
Not met
